Experiment: Photostability of compound
Assay type: physicochemical
property-measured: Stability

Input CN1c2ccccc2Sc2cc(/C=C3/SC(=S)N(CC(=O)OCC(O)CO)C3=O)ccc21 (centres undefined) , output reported Stability. Stable

Provide Stability value for the following compound: CN1c2ccccc2Sc2cc(/C=C3/SC(=S)N(CC(=O)OCC4COC(C)(C)O4)C3=O)ccc21 (centres undefined) Stable

Provide measured Stability value, entry: CCOC(=O)CN(CC(=O)OCC)C(=O)CN1C(=O)/C(=C\c2ccc3c(c2)Sc2ccccc2N3C)SC1=S Stable

In one line, give reported Stability of the entry CN1c2ccccc2Sc2cc(/C=C3/SC(=S)N(CC(=O)N(CC(=O)O)CC(=O)O)C3=O)ccc21 . Stable
